From: ChEMBL document CHEMBL1143057

assay: Inhibition of integrin alpha-2 E318W mutant binding to collagen 4 by Europium-labeled anti-GST assay; parameters: species or system Homo sapiens

molecule	IC50
CCc1cc(O)c2c(O)c3c(c(O)c2c1C(=O)OC)C(=O)c1cccc(O)c1C3=O [ANHYDROMAGGIEMYCIN]	131 µM

* * *

assay: Inhibition of integrin alpha-2 E318W mutant binding to collagen 1 by Europium-labeled anti-GST assay; design: species or system Homo sapiens
assayReadout: IC50 (µM)

molecule	assayReadout	valueReported
CCc1cc(O)c2c(O)c3c(c(O)c2c1C(=O)OC)C(=O)c1cccc(O)c1C3=O [ANHYDROMAGGIEMYCIN]	IC50	160
